B1: Caulobacter ParB omega fusion; a variant is named by its letters at X, in order, B8GW30 (parent)
chain: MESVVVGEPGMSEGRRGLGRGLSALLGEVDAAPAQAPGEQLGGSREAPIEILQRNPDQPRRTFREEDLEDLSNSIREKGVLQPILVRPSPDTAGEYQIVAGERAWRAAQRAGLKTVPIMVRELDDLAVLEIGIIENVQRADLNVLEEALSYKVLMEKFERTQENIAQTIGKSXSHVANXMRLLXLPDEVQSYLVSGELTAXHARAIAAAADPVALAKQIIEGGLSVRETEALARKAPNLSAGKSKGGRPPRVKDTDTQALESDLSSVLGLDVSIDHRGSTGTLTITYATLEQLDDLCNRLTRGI

# Variants of: B1
# protocol: one-hybrid fitness for binding parS DNA (scaled: cognate 1, non-cognate 0); higher = stronger binding
# test.conditions: with parS DNA site
Whole data set: some 81,000 sequences, median “one-hybrid fitness for binding parS DNA” near -0.17, cut for the highest 2% near 0.51. The full list was thinned out, with the highest values kept by preference.
Kindly supply the reported one-hybrid fitness for binding parS DNA values for the records listed here.
Answers are plain numbers.

# variant.spec, recorded.number
rows = [
    ("RKHT", 0.756),
]

Give me one-hybrid fitness for binding parS DNA for each of these variants, listed below.
1. RNRT
2. RNST

Found:
[0.786, 0.746]

Give me one-hybrid fitness for binding parS DNA for each of these variants, listed below.
1. RKYT
2. RNRM
3. RKIT
4. RKPT

Found:
1: 0.868; 2: 0.345; 3: 0.675; 4: 0.412

Give me one-hybrid fitness for binding parS DNA for each of these variants, listed below.
1. RKLH
2. RNIT
3. RNWT
4. RKLN

Found:
1. 0.223
2. 0.427
3. 0.535
4. 0.351
